assay: Stability of liquid pharmaceutical forms (peptide 0.2 %, benzalkonium chloride 0.01 %, water) during storage; single and total impurities; format: physicochemical; conditions: stored for 1 month at +25° C.; solution 0.2 mass % peptide, 0.01 mass % benzalkonium chloride
Non-standard residues stand in square brackets, D forms with d. No end group written: not given here. Hyp = O=C(O)[C@@H]1C[C@@H](O)CN1
This section presents substances with their documented Single impurities values.

| SUBSTANCE | Single impurities (%) |
| --- | --- |
| Thr-Lys-Pro-Arg-Pro-Phe (TKPRPF; not fully specified; printed as Thr-Lys-Pro-Arg-Pro-Phe) [hexapeptide described in RU2507212, comparison peptide, reference compound] | 0.11 |
| Thr-Lys-Hyp-Arg-Hyp-Phe (TK[Hyp]R[Hyp]F) [hexapeptide of the invention containing hydroxyproline] | 0.032 |
| Thr-Lys-Hyp-Arg-Hyp (TK[Hyp]R[Hyp]) [pentapeptide of the invention containing hydroxyproline] | 0.046 |
| Thr-Lys-Hyp-Arg-Hyp-Gly-Hyp (TK[Hyp]R[Hyp]G[Hyp]) [peptide according to the invention containing hydroxyproline] | 0.069 |
| Thr-Lys-Pro-Arg-Pro (TKPRP; not fully specified; printed as Thr-Lys-Pro-Arg-Pro) [pentapeptide described in RU2507212, comparison peptide, reference compound] | 0.067 |
| Thr-Lys-Pro-Arg-Pro-Gly-Pro (TKPRPGP; not fully specified; printed as Thr-Lys-Pro-Arg-Pro-Gly-Pro) [heptopeptide “Selank”, a synthetic analogue of the endogenous peptide tuftsin, reference compound] | 0.065 |
